measurement-target: EBOV Mayinga (GenBank: NC_002549) (Zaire Ebolavirus (EBOV Mayinga)) (UniProt Q05320)
test-summary: cell-based or functional assay
value-type: neutralization concentration (GMC, CPE reduction on Vero C1008 cells) (µg/mL)
Respond with the bare value in µg/mL.

query: Looking for the measured neutralization concentration (GMC, CPE reduction on Vero C1008 cells) of 4m0368 (antibody, V domains shown) VH: QVQLQESGPGLVKPSGTLSLTCAVSGGSISGTNWWTWVRQPPGRGLEWIGEIYYRGSPNYNPSLKSRVTISVDQSKSQFSLKLTSVTAADTAVYYCLRLSHYGGAWGQGTLVTVSS VL: DIQLTQSPSSLSASVGDRVTITCRASQSISTYLNWYQQKPGKAPKFLIFSASNLQSGVPSRFSGGGSGTDFTLTISSLQPEDFATYYCQQTYNTPRTFGQGTKVEIK , can you help?
result: 0.13

query: Another binder to check: 5T0202 (antibody, V domains shown) VH: EVQLVESGGGLVKPGGSLRLSCGASGFSFNDAWMNWVRQAPGKGLEWVGRIKSKADGGGSDTAAPVKGRFIISRDDSKNTLFLQMERLKSEDTGVYYCTTSLNIWGTYRDCWGQGTLVTVSS VL: QSVLTQPPSVSGAPGQRVTISCTGSYSNIGAGYDVRWYQQLPETAPKLLIYGNNNRPSGVPDRFSGSKSGTSASLAITGLQAEDEADYYCQSYDSRLRDSWVFGGGTRLTVL
result: 2.5
